System: giant foxtail (Setaria faberii)
test_method_notes: Test A pre-/postemergence plant response
Type: in vivo
stated_conditions: Postemergence, 125 g ai/ha; 0 to 100 scale where 0 is no effect and 100 is complete control
assay_metric: Plant response rating, Foxtail, Giant
Answer with a number only.

Illustrative cases are given below, each with its answer.
Prompt line: Specify Plant response rating, Foxtail, Giant for CCCn1c(-c2ccc3ccccc3c2)ncc(C(=O)C2=C(O)CCCC2=O)c1=O , system giant foxtail (Setaria faberii).
Response line: 40

Prompt line: Specify Plant response rating, Foxtail, Giant for COCCn1c(-c2ccsc2)ncc(C(=O)C2=C(O)C3CCC(C3)C2=O)c1=O (stereo not shown) , system giant foxtail (Setaria faberii).
Response line: 90

Prompt line: Specify Plant response rating, Foxtail, Giant for O=C1CCCC(O)=C1C(=O)c1cnc(-c2cccc(Cl)c2)n(CC2CCCO2)c1=O (stereo not shown) , system giant foxtail (Setaria faberii).
Response line: 30

Others:
Prompt line: Specify Plant response rating, Foxtail, Giant for O=C1CCCC(O)=C1C(=O)c1cnc(-c2ccccc2)n(C2CCCCCCCCCCC2)c1=O , system giant foxtail (Setaria faberii).
Response line: 20
